- Test system: Escherichia coli
- assay-comment: Inhibitory activity against Escherichia coli X161 at 10 mg/mL concentration using Agar disk plate assay
- Format: functional
quantity-measured: Zone of inhibition (mm)

[[record]]
molecular_string = "CO/N=C(\\C(=O)N[C@@H]1C(=O)N(OCC(=O)[O-])[C@H]1C)c1csc(N)n1.[K+]"
system_tested = "Escherichia coli"
measure_unit = "mm"
reported_result = 35

[[record]]
molecular_string = "CO/N=C(/C(=O)N[C@H]1CN(OCC(=O)[O-])C1=O)c1csc(N)n1.[K+]"
system_tested = "Escherichia coli"
measure_unit = "mm"
reported_result = 20

[[record]]
molecular_string = "CO/N=C(/C(=O)N[C@@H]1C(=O)N(S(=O)(=O)[O-])[C@H]1C)c1csc(N)n1.[K+]"
system_tested = "Escherichia coli"
measure_unit = "mm"
reported_result = 40

[[record]]
molecular_string = "C[C@H]1[C@H](NC(=O)Cc2csc(N)n2)C(=O)N1OCC(=O)[O-].[K+]"
system_tested = "Escherichia coli"
measure_unit = "mm"
reported_result = 24


* * *

- System: Escherichia coli
- assay-comment: Inhibitory activity against Escherichia coli X161M at 10 mg/mL concentration using Agar disk plate assay
- Assay type: functional
quantity-measured: Zone of inhibition (mm)

[[record]]
molecular_string = "CO/N=C(/C(=O)N[C@@H]1C(=O)N(S(=O)(=O)[O-])[C@H]1C)c1csc(N)n1.[K+]"
quantity_measured = "Zone of inhibition"
reported_result = 54

[[record]]
molecular_string = "C[C@H]1[C@H](NC(=O)Cc2csc(N)n2)C(=O)N1OCC(=O)[O-].[K+]"
quantity_measured = "Zone of inhibition"
reported_result = 25

[[record]]
molecular_string = "CO/N=C(\\C(=O)N[C@@H]1C(=O)N(OCC(=O)[O-])[C@H]1C)c1csc(N)n1.[K+]"
quantity_measured = "Zone of inhibition"
reported_result = 44

[[record]]
molecular_string = "CO/N=C(/C(=O)N[C@H]1CN(OCC(=O)[O-])C1=O)c1csc(N)n1.[K+]"
quantity_measured = "Zone of inhibition"
reported_result = 19


* * *

- Tested on: Bacillus subtilis
- assay-comment: Inhibitory activity against Bacillus Subtilis X12 at 10 mg/mL concentration using Agar disk plate assay
- Assay type: functional
quantity-measured: Zone of inhibition

[[record]]
molecular_string = "O=C(O)CON1C[C@H](NC(=O)Cc2ccccc2)C1=O"
reported_result = "16 mm"

[[record]]
molecular_string = "CO/N=C(\\C(=O)N[C@@H]1C(=O)N(OCC(=O)[O-])[C@H]1C)c1csc(N)n1.[K+]"
reported_result = "13 mm"

[[record]]
molecular_string = "C[C@H]1[C@H](NC(=O)Cc2ccccc2)C(=O)N1OCC(=O)O"
reported_result = "11 mm"

[[record]]
molecular_string = "C[C@H]1[C@H](NC(=O)Cc2csc(N)n2)C(=O)N1OCC(=O)[O-].[K+]"
reported_result = "12 mm"

[[record]]
molecular_string = "CO/N=C(/C(=O)N[C@@H]1C(=O)N(S(=O)(=O)[O-])[C@H]1C)c1csc(N)n1.[K+]"
reported_result = "23 mm"


* * *

Zone of inhibition values by entry
- System: Serratia marcescens
- assay-comment: Inhibitory activity against Serratia marcescens X99 at 10 mg/mL concentration using Agar disk plate assay
- Format: functional
quantity-measured: Zone of inhibition (mm)

[[record]]
molecular_string = "CO/N=C(/C(=O)N[C@H]1CN(OCC(=O)[O-])C1=O)c1csc(N)n1.[K+]"
system_tested = "Serratia marcescens"
reported_result = 16

[[record]]
molecular_string = "CO/N=C(/C(=O)N[C@@H]1C(=O)N(S(=O)(=O)[O-])[C@H]1C)c1csc(N)n1.[K+]"
system_tested = "Serratia marcescens"
reported_result = 40

[[record]]
molecular_string = "CO/N=C(\\C(=O)N[C@@H]1C(=O)N(OCC(=O)[O-])[C@H]1C)c1csc(N)n1.[K+]"
system_tested = "Serratia marcescens"
reported_result = 33

[[record]]
molecular_string = "C[C@H]1[C@H](NC(=O)Cc2csc(N)n2)C(=O)N1OCC(=O)[O-].[K+]"
system_tested = "Serratia marcescens"
reported_result = 23

